Molecular target: Cytochrome P450 3A4 (Homo sapiens, UniProt P08684)
Sequence (P08684 whole entry): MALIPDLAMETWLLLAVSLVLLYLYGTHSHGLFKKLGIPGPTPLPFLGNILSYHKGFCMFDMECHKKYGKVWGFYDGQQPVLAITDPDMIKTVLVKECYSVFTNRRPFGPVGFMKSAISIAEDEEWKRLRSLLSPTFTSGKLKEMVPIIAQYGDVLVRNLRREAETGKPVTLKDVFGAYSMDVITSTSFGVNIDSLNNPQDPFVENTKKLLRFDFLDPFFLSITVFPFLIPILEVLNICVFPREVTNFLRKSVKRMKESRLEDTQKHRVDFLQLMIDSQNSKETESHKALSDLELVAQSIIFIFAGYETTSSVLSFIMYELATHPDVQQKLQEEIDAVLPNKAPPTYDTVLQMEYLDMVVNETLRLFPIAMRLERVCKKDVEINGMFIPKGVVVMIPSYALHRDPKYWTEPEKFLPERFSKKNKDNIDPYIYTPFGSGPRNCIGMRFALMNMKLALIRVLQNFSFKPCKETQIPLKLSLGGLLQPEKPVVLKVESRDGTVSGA
Experiment: Inhibition of human CYP3A4 by microtiter plate assays using N-N,diethyl-formamide as substrate
IC50 less than 10 µM is criterion met; IC50 greater than or equal to 10 µM is criterion not met.

[[record]]
molecule = "O=S(=O)(c1ccccc1Cl)n1ccc2cc3c(cc21)CCNCC3"
class_assignment = "criterion met"

[[record]]
molecule = "O=S(=O)(c1cccc(Cl)c1)n1ccc2cc3c(cc21)CCNCC3"
class_assignment = "criterion met"

[[record]]
molecule = "Cn1cc(S(=O)(=O)c2ccccc2)c2cc3c(cc21)CCNCC3"
class_assignment = "criterion met"

[[record]]
molecule = "O=S(=O)(c1ccccc1)n1ccc2cc3c(cc21)CCNCC3"
class_assignment = "criterion not met"

[[record]]
molecule = "O=S(=O)(c1ccccn1)n1ccc2cc3c(cc21)CCNCC3"
class_assignment = "criterion not met"

[[record]]
molecule = "COc1cccc(S(=O)(=O)n2ccc3cc4c(cc32)CCNCC4)c1"
class_assignment = "criterion not met"

[[record]]
molecule = "CN1CCc2cc3ccn(S(=O)(=O)c4cccc(Cl)c4)c3cc2CC1"
class_assignment = "criterion not met"

[[record]]
molecule = "O=S(=O)(c1ccccc1)n1cc(Cl)c2cc3c(cc21)CCNCC3"
class_assignment = "criterion not met"

[[record]]
molecule = "O=S(=O)(c1ccsc1)n1ccc2cc3c(cc21)CCNCC3"
class_assignment = "criterion met"


----------
Biological target: 5-hydroxytryptamine receptor 6 (Homo sapiens)
Sequence (P50406 whole entry): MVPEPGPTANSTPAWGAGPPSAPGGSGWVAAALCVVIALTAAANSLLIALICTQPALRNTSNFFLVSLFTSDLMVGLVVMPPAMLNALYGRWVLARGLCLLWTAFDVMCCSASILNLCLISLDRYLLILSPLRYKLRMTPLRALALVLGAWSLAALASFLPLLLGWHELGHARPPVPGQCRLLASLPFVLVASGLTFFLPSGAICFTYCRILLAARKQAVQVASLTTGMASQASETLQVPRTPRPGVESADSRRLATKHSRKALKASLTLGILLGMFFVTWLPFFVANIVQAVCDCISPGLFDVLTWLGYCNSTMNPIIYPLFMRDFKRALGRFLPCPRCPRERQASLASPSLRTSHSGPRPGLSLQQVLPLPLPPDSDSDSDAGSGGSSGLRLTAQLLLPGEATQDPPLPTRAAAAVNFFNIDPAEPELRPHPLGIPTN
Assay: Antagonist activity at 5HT6 receptor expressed in HeLa cells assessed as 5HT-induced cAMP accumulation by chemiluminescence assay
Assay type: functional, cell-based
pKi: −log10 of the molar value.
Measurement Label: pKi

[[record]]
molecule = "O=S(=O)(c1ccsc1)n1ccc2cc3c(cc21)CCNCC3"
target_entity = "5-hydroxytryptamine receptor 6 (Homo sapiens)"
measurement_label = "pKi"
obs_value = 8.10

[[record]]
molecule = "Cn1cc(S(=O)(=O)c2ccccc2)c2cc3c(cc21)CCNCC3"
target_entity = "5-hydroxytryptamine receptor 6 (Homo sapiens)"
measurement_label = "pKi"
obs_value = 8.70

[[record]]
molecule = "COc1cccc(S(=O)(=O)n2ccc3cc4c(cc32)CCNCC4)c1"
target_entity = "5-hydroxytryptamine receptor 6 (Homo sapiens)"
measurement_label = "pKi"
obs_value = 8.70

[[record]]
molecule = "O=S(=O)(c1ccccc1)n1ccc2cc3c(cc21)CCNCC3"
target_entity = "5-hydroxytryptamine receptor 6 (Homo sapiens)"
measurement_label = "pKi"
obs_value = 8.80

[[record]]
molecule = "O=S(=O)(c1cccc(Cl)c1)n1cc(Cl)c2cc3c(cc21)CCNCC3"
target_entity = "5-hydroxytryptamine receptor 6 (Homo sapiens)"
measurement_label = "pKi"
obs_value = 8.40

[[record]]
molecule = "CN1CCc2cc3ccn(S(=O)(=O)c4cccc(Cl)c4)c3cc2CC1"
target_entity = "5-hydroxytryptamine receptor 6 (Homo sapiens)"
measurement_label = "pKi"
obs_value = 8.90

[[record]]
molecule = "O=S(=O)(c1ccccn1)n1ccc2cc3c(cc21)CCNCC3"
target_entity = "5-hydroxytryptamine receptor 6 (Homo sapiens)"
measurement_label = "pKi"
obs_value = 7.00

[[record]]
molecule = "O=S(=O)(c1ccccc1)n1cc(Cl)c2cc3c(cc21)CCNCC3"
target_entity = "5-hydroxytryptamine receptor 6 (Homo sapiens)"
measurement_label = "pKi"
obs_value = 8.60

[[record]]
molecule = "O=S(=O)(c1ccc(Cl)cc1)n1ccc2cc3c(cc21)CCNCC3"
target_entity = "5-hydroxytryptamine receptor 6 (Homo sapiens)"
measurement_label = "pKi"
obs_value = 8.10

[[record]]
molecule = "O=S(=O)(c1ccccc1)N1CCCc2cc3c(cc21)CCNCC3"
target_entity = "5-hydroxytryptamine receptor 6 (Homo sapiens)"
measurement_label = "pKi"
obs_value = 7.40

[[record]]
molecule = "O=S(=O)(c1ccccc1Cl)n1ccc2cc3c(cc21)CCNCC3"
target_entity = "5-hydroxytryptamine receptor 6 (Homo sapiens)"
measurement_label = "pKi"
obs_value = 8.10

[[record]]
molecule = "O=S(=O)(c1cccc(Cl)c1)n1ccc2cc3c(cc21)CCNCC3"
target_entity = "5-hydroxytryptamine receptor 6 (Homo sapiens)"
measurement_label = "pKi"
obs_value = 8.80


----------
Biological target: Cytochrome P450 3A4 (Homo sapiens, UniProt P08684)
Assay: Inhibition of human CYP3A4 by microtiter plate assays using PPR substrate
pIC50: −log10 of the molar value.
Returns 1 if the recorded pIC50 is greater than or equal to 5, and -1 otherwise.

[[record]]
molecule = "O=S(=O)(c1ccccc1)n1cc(Cl)c2cc3c(cc21)CCNCC3"
class_assignment = -1

[[record]]
molecule = "O=S(=O)(c1ccccc1Cl)n1ccc2cc3c(cc21)CCNCC3"
class_assignment = 1

[[record]]
molecule = "O=S(=O)(c1cccc(Cl)c1)n1ccc2cc3c(cc21)CCNCC3"
class_assignment = 1

[[record]]
molecule = "COc1cccc(S(=O)(=O)n2ccc3cc4c(cc32)CCNCC4)c1"
class_assignment = -1

[[record]]
molecule = "O=S(=O)(c1ccccn1)n1ccc2cc3c(cc21)CCNCC3"
class_assignment = -1

[[record]]
molecule = "O=S(=O)(c1ccccc1)n1ccc2cc3c(cc21)CCNCC3"
class_assignment = -1

[[record]]
molecule = "O=S(=O)(c1ccsc1)n1ccc2cc3c(cc21)CCNCC3"
class_assignment = -1

[[record]]
molecule = "CN1CCc2cc3ccn(S(=O)(=O)c4cccc(Cl)c4)c3cc2CC1"
class_assignment = -1


----------
Test system: Liver microsomes
Experiment: Metabolic stability in rat liver microsomes assessed as intrinsic clearance at […] upto 30 mins
Assay type: ADME, Microsome
Settings: 0.5 h
Please respond with true when measured CL is strictly beneath 5 mL/min/g, and with false in all other cases.

[[record]]
molecule = "COc1cccc(S(=O)(=O)n2ccc3cc4c(cc32)CCNCC4)c1"
class_assignment = "true"

[[record]]
molecule = "Cn1cc(S(=O)(=O)c2ccccc2)c2cc3c(cc21)CCNCC3"
class_assignment = "true"

[[record]]
molecule = "O=S(=O)(c1ccccc1Cl)n1ccc2cc3c(cc21)CCNCC3"
class_assignment = "true"

[[record]]
molecule = "O=S(=O)(c1ccsc1)n1ccc2cc3c(cc21)CCNCC3"
class_assignment = "false"

[[record]]
molecule = "O=S(=O)(c1cccc(Cl)c1)n1cc(Cl)c2cc3c(cc21)CCNCC3"
class_assignment = "true"

[[record]]
molecule = "O=S(=O)(c1ccccn1)n1ccc2cc3c(cc21)CCNCC3"
class_assignment = "true"

[[record]]
molecule = "O=S(=O)(c1ccccc1)n1ccc2cc3c(cc21)CCNCC3"
class_assignment = "false"

[[record]]
molecule = "O=S(=O)(c1cccc(Cl)c1)n1ccc2cc3c(cc21)CCNCC3"
class_assignment = "true"

[[record]]
molecule = "O=S(=O)(c1ccccc1)n1cc(Cl)c2cc3c(cc21)CCNCC3"
class_assignment = "true"

[[record]]
molecule = "CN1CCc2cc3ccn(S(=O)(=O)c4cccc(Cl)c4)c3cc2CC1"
class_assignment = "false"


----------
Molecular target: 5-hydroxytryptamine receptor 2A (Homo sapiens, UniProt P28223)
Sequence (P28223 whole entry): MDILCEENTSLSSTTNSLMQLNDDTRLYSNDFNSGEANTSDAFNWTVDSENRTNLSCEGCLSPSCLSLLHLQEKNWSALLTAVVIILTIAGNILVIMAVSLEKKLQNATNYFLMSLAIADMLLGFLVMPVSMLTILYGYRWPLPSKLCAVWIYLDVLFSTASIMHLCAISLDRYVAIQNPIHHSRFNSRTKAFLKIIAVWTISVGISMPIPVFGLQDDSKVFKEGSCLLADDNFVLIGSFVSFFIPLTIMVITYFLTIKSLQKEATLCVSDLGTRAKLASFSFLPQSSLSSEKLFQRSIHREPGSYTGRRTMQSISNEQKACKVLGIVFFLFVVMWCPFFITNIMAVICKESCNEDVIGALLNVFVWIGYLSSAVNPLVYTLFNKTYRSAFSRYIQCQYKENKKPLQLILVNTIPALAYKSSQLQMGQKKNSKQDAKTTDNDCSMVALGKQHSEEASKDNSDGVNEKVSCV
Test: Antagonist activity at 5HT2A receptor
Measurement Label: Ki (nM)

[[record]]
molecule = "O=S(=O)(c1ccccc1)n1cc(Cl)c2cc3c(cc21)CCNCC3"
target_entity = "5-hydroxytryptamine receptor 2A (Homo sapiens, UniProt P28223)"
measurement_label = "Ki"
obs_value = 25.1


----------
Molecular target: 5-hydroxytryptamine receptor 2B (Homo sapiens)
Sequence (P41595 whole entry): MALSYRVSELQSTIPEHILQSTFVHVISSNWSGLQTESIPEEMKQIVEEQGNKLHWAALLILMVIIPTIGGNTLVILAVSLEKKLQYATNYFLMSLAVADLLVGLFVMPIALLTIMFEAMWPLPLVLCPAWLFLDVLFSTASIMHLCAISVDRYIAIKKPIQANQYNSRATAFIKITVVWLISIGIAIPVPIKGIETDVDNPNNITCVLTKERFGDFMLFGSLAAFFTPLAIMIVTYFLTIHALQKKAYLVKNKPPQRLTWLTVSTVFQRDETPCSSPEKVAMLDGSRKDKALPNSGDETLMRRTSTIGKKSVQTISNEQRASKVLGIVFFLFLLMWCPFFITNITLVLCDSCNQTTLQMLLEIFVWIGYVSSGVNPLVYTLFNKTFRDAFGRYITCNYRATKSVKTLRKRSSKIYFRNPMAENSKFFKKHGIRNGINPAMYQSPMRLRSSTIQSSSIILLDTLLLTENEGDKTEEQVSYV
Test: Antagonist activity at 5HT2B receptor
Measurement Label: Ki

[[record]]
molecule = "O=S(=O)(c1ccccc1)n1cc(Cl)c2cc3c(cc21)CCNCC3"
obs_value = "398 nM"

